Biological target: mouse SOD1 expressed in mouse neuroblastoma cells (MNA) (mouse, UniProt P08228 2-154)
Experiment: IP from mouse neuroblastoma (MNA) cell lysate, immunoblot rabbit anti-SOD1
measured property: binding result

Please review the following examples before continuing.
| binder | measured property | val |
| --- | --- | --- |
| 358-11 (antibody, V domains shown, Human IgG kappa monoclonal from HuMab mouse hybridoma) VH: QVQLVESGGGVVQPGRSLRLSCAASGFTFSNYGIHWVRQAPGKGLEWVAIIWHDGSNSYYVDSVKGRFTMSRDNSKNTVYLQMNSLRAEDTAVYFCARIIGGAFDIWGQGTMVTVSS VL: DIQMTQSPSSLSASVGDRVTITCRASQGISSWLAWYQQKPEKAPKSLIYAASSLQSGVPSRFSGSGSGTDFTLTISSLQPEDFATYYCQQYNSYPITFGQGTRLEIK | binding result | no binding |
| 14-173 (antibody, V domains shown, Human IgG kappa monoclonal from HuMab mouse hybridoma; Conformation-dependent antibody) VH: EVQLVESGGGLVQPGGSLRLSCAASGFTFSSFWMSWVRQAPGKGLEWVANIKHDGSEQDYVDSVKGRFTISRDNAKNSLYLQMNSLRAEDTAVYYCARGGIWFGPWGQGTLVTVSS VL: VIWMTQSPSLLSASTGDRVTISCRMSQGISSYLAWYQQKPGKAPEVLIYAVSTLQSGVPSRFSGSGSGTDFTLTISCLQSEDFATYYCQQYYSFPYTFGQGTKLEIK | binding result | binds |
| 358-22 (antibody, V domains shown, Human IgG kappa monoclonal from HuMab mouse hybridoma; Conformation-dependent antibody) VH: QVQLVESGGGVVQPGRSLRLSCAASGFTFRSYGMHWVRQAPGKGLEWVTLIWYDGSNKYYADSVKGRFTISRDNSKNTLYLQMNSLRVEDTAVYYCAREGFNWDAFDIWGQGTMVTVSS VL: EIVLTQSPGTLSLSPGERATLSCRASQSVRISYLAWYQQKPGQAPRLLIYGTFSRATGIPDRFSGSGSGTDFTLTISRLEPEDFAVYYCQQYGSSMYTFGQGTKLEIK | binding result | binds |
| 591-33 (antibody, V domains shown, Human IgG kappa monoclonal from HuMab mouse hybridoma) VH: EVQLVESGGGLVQPGGSLRLSCAASGFTFSRYWMSWVRQAPGKGLEWMANIKQDGSETHYVDSVKGRFTISRDNAKNSLYLQMNSLRAEDTAVYYCAIGDYWGQGTLVTVSS VL: DIQMTQSPSSLSASVGDRVTITCRASQDISSWLAWYQQKPEKAPKSLIYAASSLQSGVPSRFSGSGSGTDFTLTISSLQPEDFATYYCQQYKSYPLTFGGGTKVEIK | binding result | no binding |

Task: // query binding result value for entry 312-19 (antibody, V domains shown, Human IgG kappa monoclonal from HuMab mouse hybridoma; Conformation-dependent antibody) VH: QVQLVQSGAEVKKPGSSVKVSCKASGGTFNNFVIGWVRQAPGQGLEWMGRIIPILDIANYAQKFQGRVTITADKSTSTVYMELNSLRSEDTAVYYCARTGNYYKPYDYWGQGTLVTVSS VL: EIVLTQSPDFQSVTPKEKVTITCRASQSIGSSLHWYQQKPDQSPKLLIKYASQSFSGVPSRFSGSGSGTDFTLTINSLEAEDAAAYYCHQSSSLPITFGQGTRLEIK
Output: no binding

Task: // query binding result value for entry 311-3 (antibody, V domains shown, Human IgG kappa monoclonal from HuMab mouse hybridoma) VH: QVQLQQWGAGLLKPSETLSLTCAVYGGSFSGYYWNWIRQPPGMGLEWIGEIHQSGGPHYNPSLKSRVSISVDTSKNQVNLKLSSVTAADTAIYYCTELDDYWGQGTLVTVSS VL: EIVLTQSPATLSLSPGERATLSCRASQSVSSYLAWYQQKPGQAPRLLIYNASNRATGIPARFSGSGSGTDFTLTIGSLEPEDFAVYYCQQRSNWPRTFGQGTKVEIK
Output: no binding

Task: // query binding result value for entry 597-120 (antibody, V domains shown, Human IgG kappa monoclonal from HuMab mouse hybridoma; Conformation-dependent antibody) VH: EVHLVESGGGLVQSGGSLRLSCAASGFSISGYWMSWVRQAPGKGLEWVANIKQDGGEKYYGDSVKGRFTISRDNAENSLYLQMSSLRAEDTAVYYCVMAGGLDYWGQGALVTVSS VL: EIVLTQSPATLSLSPGERATLSCRASQSVSSYLAWYQQKPGQAPRLLIYDASNRATGIPARFSGSGSGTDFTLTISSLEPEDFAVYYCQQRSNWYTFGQGTKLEIK
Output: no binding
